Reference source: ChEMBL document CHEMBL1123708

# Tested on: Rattus norvegicus
# method-summary: Change in rectal temperature induced by DiPr-5,6-ADTN at a dose of 13 umol/kg of compound by subcutaneous administration
# Format: functional
Class (required): determined from Body temp change; valid ranges are bucket A = under -0.4 °C, bucket B = from -0.4 °C up to 0.2 °C, bucket C = 0.2 °C and over

# count of solved cases: 5
1. CCCCN(CCCC)[C@@H]1CCc2c(OC)cccc2[C@@H]1C    bucket B
2. CCCCN(CCCC)[C@H]1CCc2c(O)cccc2[C@H]1C    bucket A
3. CCN(CC)[C@H]1CCc2c(O)cccc2[C@H]1C    bucket C
4. CCN(CC)[C@@H]1CCc2c(OC)cccc2[C@@H]1C    bucket C
5. CCCCN[C@@H]1CCc2c(O)cccc2[C@@H]1C    bucket A

Query: Pick a category. Item: CCCN(CCC)[C@@H]1CCc2c(OC)cccc2[C@@H]1C
Result: bucket C

Query: Category lookup for the compound CCCN[C@@H]1CCc2c(O)cccc2[C@@H]1C
Result: bucket B

Query: Which category does the recorded Body temp change put C[C@@H]1c2cccc(O)c2CC[C@@H]1N(C)C in?
Result: bucket C

Query: Classify this compound: CCCCN(CCCC)[C@@H]1CCc2c(O)cccc2[C@@H]1C
Result: bucket A

Query: Which bin, given its Body temp change, does CCN[C@@H]1CCc2c(O)cccc2[C@@H]1C occupy?
Result: bucket A

Query: Lab note: sort CCCN(CCC)[C@H]1CCc2c(O)cccc2[C@@H]1C into the matching Body temp change band.
Result: bucket A

Query: Looking at C[C@H]1c2cccc(O)c2CC[C@H]1N(C)C , which class would you pick?
Result: bucket C
